- System: HEK293T cells
- Test Summary: Translation efficiency of capped luciferase mRNAs
- Type: cell-based
- Stated Conditions: ratio to N-7413
- Experimental: (1) HEK293T cells were cultured in DMEM medium containing 10% FBS and penicillin/streptomycin at 37° C. with 5% CO2. (2) Cells in the culture dish were digested and counted, then spread in a 96-well plate at 10,000 cells per well, and cultured overnight until the cells adhered to the wall. […] (6) The mixture was incubated at room temperature (approximately 25° C.) for 5 minutes to stabilize the luminescence signal. […]
Measurement Label: relative fluorescence intensity, times that of N-7413

Task: Under HEK293T cells: relative fluorescence intensity, times that of N-7413 value of COC1C(OP(=O)([O-])OC[C@H]2O[C@@H](n3cnc4c(=O)[nH]c(N)nc43)C(O)C2O)[C@@H](COP(=O)(O)OP(=O)(O)OP(=O)(O)OC[C@]23O[C@@H]([n+]4cn(C)c5c(=O)[nH]c(N)nc54)C(O[C@H]2CC(=O)N(C)C)C3O)O[C@H]1n1cnc2c(N)ncnc21 (stereo partly shown) [YK-CAP-003] ?
Result: 1.2 times

Task: Under HEK293T cells: relative fluorescence intensity, times that of N-7413 value of COC1C(OP(=O)([O-])OC[C@H]2O[C@@H](n3cnc4c(=O)[nH]c(N)nc43)C(O)C2O)[C@@H](COP(=O)(O)OP(=O)(O)OP(=O)(O)OC[C@]23O[C@@H]([n+]4cn(C)c5c(=O)[nH]c(N)nc54)C(O[C@H]2CCS(=O)(=O)N(C)C)C3O)O[C@H]1n1cnc2c(N)ncnc21 (stereo partly shown) [YK-CAP-006] ?
Result: 1.3 times

Task: Under HEK293T cells: relative fluorescence intensity, times that of N-7413 value of COC1C(OP(=O)([O-])OC[C@H]2O[C@@H](n3cnc4c(=O)[nH]c(N)nc43)C(O)C2O)[C@@H](COP(=O)(O)OP(=O)(O)OP(=O)(O)OC[C@]23O[C@@H]([n+]4cn(C)c5c(=O)[nH]c(N)nc54)C(O[C@H]2CC(F)F)C3O)O[C@H]1n1cnc2c(N)ncnc21 (stereo partly shown) [YK-CAP-004] ?
Result: 1.4 times

Query molecule follows.
Task: Under HEK293T cells: relative fluorescence intensity, times that of N-7413 value of COC1C(OP(=O)([O-])OC[C@H]2O[C@@H](n3cnc4c(=O)[nH]c(N)nc43)C(O)C2O)[C@@H](COP(=O)(O)OP(=O)(O)OP(=O)(O)OC[C@]23O[C@@H]([n+]4cn(C)c5c(=O)[nH]c(N)nc54)C(O[C@H]2CCS(C)(=O)=O)C3O)O[C@H]1n1cnc2c(N)ncnc21 (stereo partly shown) [YK-CAP-005] ?
Result: 1.3 times
